# Study Target: COX-2 (Homo sapiens, UniProt P35354)
# Sequence (P35354 18-604): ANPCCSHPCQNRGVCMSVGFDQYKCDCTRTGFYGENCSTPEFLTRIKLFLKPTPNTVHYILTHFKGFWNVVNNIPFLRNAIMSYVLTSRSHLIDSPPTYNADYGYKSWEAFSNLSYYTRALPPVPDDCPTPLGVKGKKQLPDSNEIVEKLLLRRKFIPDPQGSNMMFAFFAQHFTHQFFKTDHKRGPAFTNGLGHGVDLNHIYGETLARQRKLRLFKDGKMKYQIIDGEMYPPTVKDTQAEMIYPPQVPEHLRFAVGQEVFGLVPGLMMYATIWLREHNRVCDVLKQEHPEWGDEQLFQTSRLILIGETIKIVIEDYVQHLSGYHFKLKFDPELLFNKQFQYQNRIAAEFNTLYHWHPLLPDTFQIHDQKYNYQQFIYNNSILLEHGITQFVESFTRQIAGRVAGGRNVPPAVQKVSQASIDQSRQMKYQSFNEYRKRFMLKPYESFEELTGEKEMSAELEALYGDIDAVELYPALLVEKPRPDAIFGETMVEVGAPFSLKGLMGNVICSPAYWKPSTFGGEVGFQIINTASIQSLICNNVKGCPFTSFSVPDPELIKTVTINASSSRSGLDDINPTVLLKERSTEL
# Assay Overview: Cyclooxygenase COX-2 inhibition assay (Cayman COX inhibitor screening kit, EIA)
# Particulars: read-out: COX 2 IC50; mean ± SD of three experiments
Metric: IC50 (nM)
Lab book: enter the figure in nM, no units written.

Example entries begin here.
[
  {
    "Line Notation": "CN(C)c1ccc(Cc2cc(-c3ccc(Cl)c(Cl)c3)n[nH]c2=O)cc1",
    "Study Target": "COX-2 (Homo sapiens, UniProt P35354)",
    "Value Unit": "nM",
    "Reported Value": 120
  },
  {
    "Line Notation": "O=c1[nH]nc(-c2ccc(Cl)c(Cl)c2)cc1Cc1cccc([N+](=O)[O-])c1",
    "Study Target": "COX-2 (Homo sapiens, UniProt P35354)",
    "Value Unit": "nM",
    "Reported Value": 250
  }
]

Continue with the compound presented below.
In one line, give reported IC50 of the entry O=c1[nH]nc(-c2ccc(Cl)c(Cl)c2)cc1Cc1ccccc1[N+](=O)[O-] .
170
